Collected T/C values appear next to each entry.
# Tested on: P388 leukemia ip, CD2F1 mice, survival T/C
# MEASUREMENT DESCRIPTION: NCI In Vivo Anticancer Drug Screen. Data for tumor model P388 Leukemia (intraperitoneal) in CD2F1 (CDF1) mice
# CONDITION SET: endpoint: median survival time; dose: 60.0 mg/kg/injection; schedule: Q01DX005 (ip); vehicle: Klucel (hydroxypropylcellulose) (HPC); higher = longer survival
# Experimental: The antitumor activity of compounds was measured in mice bearing transplantable tumors. Survival or tumor size were measured and the results are expressed as the measurement made in the treated group (T) divided by the measurement made in the vehicle treated control group (C). The tumor model used in this assay is P388 Leukemia (intraperitoneal) in CD2F1 (CDF1) mice
Inconclusive results and toxic doses are left out.
QUANTITY KIND: T/C

[[record]]
compound = "CC(/C(=N/O)c1ccccc1)N1C(=O)c2ccccc2C1=O (configuration not stated)"
quantity_kind = "T/C"
val = "100 % of control"

[[record]]
compound = "CCC(=O)c1cc(-c2cc(C(=O)CC)[nH]n2)n[nH]1"
quantity_kind = "T/C"
val = "98 % of control"

[[record]]
compound = "Nc1nc(Cc2ccccc2)cc(-c2cc(Cc3ccccc3)nc(N)n2)n1"
quantity_kind = "T/C"
val = "90 % of control"

[[record]]
compound = "NC1=C(Br)C(=O)C(N)=C(Br)C1=O"
quantity_kind = "T/C"
val = "100 % of control"

[[record]]
compound = "CN1C(=O)C(Br)(Br)CC1c1cccnc1 (configuration not stated)"
quantity_kind = "T/C"
val = "101 % of control"

[[record]]
compound = "Cc1ccc(C2OC3=C(Nc4ccc([N+](=O)[O-])cc4N3)C2=O)cc1 (configuration not stated)"
quantity_kind = "T/C"
val = "90 % of control"

[[record]]
compound = "COc1ccc(C2OC(=N)C(=S)N2C)cc1O (configuration not stated)"
quantity_kind = "T/C"
val = "112 % of control"

[[record]]
compound = "CCCCN(CCO)CC(O)Cn1cnc2c(N)ncnc21 (configuration not stated)"
quantity_kind = "T/C"
val = "94 % of control"

[[record]]
compound = "CC1=C2C3OC(=O)C(C)C3CCC2(C)C=C(Cl)C1=O (configuration not stated)"
quantity_kind = "T/C"
val = "111 % of control"

[[record]]
compound = "COc1cc2ccncc2cc1Oc1c(OC)c(OC)cc2ccncc12"
quantity_kind = "T/C"
val = "100 % of control"

[[record]]
compound = "NC1=C(O)C(=O)C(c2ccc3c(c2)OCO3)O1 (configuration not stated)"
quantity_kind = "T/C"
val = "92 % of control"

[[record]]
compound = "C=C(CCS(=O)c1ccccc1)CC(CC(=C)COC(C)=O)S(=O)(=O)c1ccccc1 (configuration not stated)"
quantity_kind = "T/C"
val = "99 % of control"

